Recorded Metric: melting point

[[record]]
compound = "CN(c1cccc2cc(-c3nc(CCl)cs3)[nH]c12)S(=O)(=O)c1cccs1"
test_value = "153 to 154 °C"

[[record]]
compound = "COC(=O)c1cc(-c2c(OC)cccc2OC)n(-c2cc(C(=O)O)ccc2C)n1"
test_value = "189 °C"

[[record]]
compound = "COc1ccc(C(C)C)cc1-c1cc(-c2nnnn2C2CCN(C(=O)OC(C)(C)C)C2)c(OCc2ccccc2)cc1OCc1ccccc1 (configuration not stated)"
test_value = "73 to 77 °C"

[[record]]
compound = "Cn1cc(C2=C(c3cn(CCCS)c4ccccc34)C(=O)NC2=O)c2ccccc21"
test_value = "155 to 157 °C"

[[record]]
compound = "CN(C)C(=O)n1cc(C(=O)C2CSC(c3cccnc3)N2C=O)c2ccc(OCc3ccccc3)cc21 (configuration not stated)"
test_value = "90 °C"


Value lookup for melting point; key = CC(=O)OC1CCC2(C)C(CCC3C4CC5OC6(CC(C)C(C)(C)O6)C(C)(O)C5C4(C)CC(O)C32)C1 (configuration not stated)
194 to 195 °C

Value lookup for melting point; key = "O=S(=O)(Nc1nc(Cl)cnc1OCc1ccco1)c1ccc(Cl)s1"
130 to 133 °C

Value lookup for melting point; key = "O=c1oc2ccccc2nc1-c1cc(O)c(O)c([N+](=O)[O-])c1"
120 °C

Value lookup for melting point; key = "CN(C)C(=O)CCC(=O)c1ccccc1"
56 to 58 °C

Value lookup for melting point; key = "O=c1[nH][nH]c(=O)c2c(O)c3cc([N+](=O)[O-])ccc3nc12"
264 °C

----------
Each item that follows carries a reported melting point.

[[record]]
smiles_input = "COC(=O)c1cc(OC)c(N(C)C(C)=O)c(OC)c1"
recorded_metric = "melting point"
test_value = "115 to 116 °C"

[[record]]
smiles_input = "CS(=O)(=O)c1ccc(-c2cnn(Cc3c(F)c(F)c(F)c(F)c3F)c(=O)c2-c2ccc(F)cc2)cc1"
recorded_metric = "melting point"
test_value = "115 to 116 °C"


Now look at this entry.
Value lookup for melting point; key = "O=C(c1ccc(-c2ccccc2)cc1)N1CCCCc2sccc21"
164 to 166 °C

----------
Each item that follows carries a reported melting point.

[[record]]
compound = "Cc1nnc(-c2ccc3occ(-c4cccc(Cl)c4)c3c2)o1"
recorded_metric = "melting point"
test_value = "145 to 146 °C"

[[record]]
compound = "COC(=O)c1cc2cc(-c3ccc(OC)cc3)ccc2o1"
recorded_metric = "melting point"
test_value = "160 to 162 °C"

[[record]]
compound = "O=[N+]([O-])c1cc(S(=O)(=O)C(F)(F)F)[nH]c1-c1ccc(Cl)cc1"
recorded_metric = "melting point"
test_value = "97 to 99 °C"


Value lookup for melting point; key = "N#Cc1ccc(C(=O)CNc2ccc(Br)cc2)cc1"
154 to 157 °C

Value lookup for melting point; key = "COc1ccc(-c2nc(C)c(-c3cccnc3)[nH]2)cc1OC"
246 to 248 °C

Value lookup for melting point; key = CC1CC(=O)N(c2ccccc2)c2cc(Cl)ccc2N1C (centres undefined)
113 to 114 °C

Value lookup for melting point; key = "Cc1cncc(C)c1-c1c(C)cc(C(C#N)C#N)cc1C"
58 to 60 °C

Value lookup for melting point; key = O=S(=O)(NC(c1ccc(F)cc1)c1ccnn1-c1ccc(F)cc1)c1ccc(Cl)s1 (centres undefined)
159 to 160 °C

Value lookup for melting point; key = CC(C)(C)OC(=O)NC1CCCCCC=CC2CC2(C(=O)NS(=O)(=O)C2CC2)NC(=O)C2CC(OC(=O)c3ccc4ccccc4c3)CN2C1=O (centres undefined)
156 to 158 °C
